Exercise: for every item that follows, state its recorded Ki.
assay: Displacement of [3H]YM09151-2 from D2R (long isoform) dimer in lamb striatum membrane high affinity macroscopic equilibrium dissociation constant by scintillation counting; type: cell membranes, Ovis aries
Respond numerically; units are nM and should not be typed.

Exercise: Any idea what its Ki is? The compound is CCCN(CCc1ccc(NC(=O)CCC(N)C(=O)NCCCCC(NC(=O)CCC(=O)NCCOCCOCCNC(=O)CCC(=O)NCCOCCOCCNC(=O)C(CCCCNC(C)=O)NC(C)=O)C(N)=O)cc1)C1CCc2c(O)cccc2C1 (centres undefined)
Solution: 11

Exercise: Any idea what its Ki is? The compound is CCCN(CCc1ccc(NC(=O)CCC(N)C(=O)NCCCCC(NC(=O)C(CCCCNC(C)=O)NC(C)=O)C(N)=O)cc1)C1CCc2c(O)cccc2C1 (centres undefined)
Solution: 4

Exercise: Any idea what its Ki is? The compound is CCCN(CCc1ccc(NC(=O)CCC(N)C(=O)NCCCCC(NC(=O)C(CCCCNC(=O)C(N)CCCCNC(=O)COc2ccc(-c3nc4c([nH]3)c(=O)n(CCC)c(=O)n4CCC)cc2)NC(C)=O)C(N)=O)cc1)C1CCc2c(O)cccc2C1 (centres undefined)
Solution: 1

Exercise: Any idea what its Ki is? The compound is CCCN(CCc1ccc(NC(=O)CCC(N)C(=O)NCCCCC(NC(=O)CCC(=O)NCCOCCOCCNC(=O)CCC(=O)NCCOCCOCCNC(=O)C(CCCCNC(=O)C(N)CCCCNC(=O)COc2ccc(-c3nc4c([nH]3)c(=O)n(CCC)c(=O)n4CCC)cc2)NC(C)=O)C(N)=O)cc1)C1CCc2c(O)cccc2C1 (centres undefined)
Solution: 1.1

###

target: Adenosine A2A receptor (Homo sapiens) (UniProt P29274); assay: Displacement of [3H]ZM241385 from human A2aR/D2R (long isoform) heteromer expressed in mouse Ltk cells by scintillation counting; assay type: cell-based
Sequence (P29274 whole entry, canonical isoform): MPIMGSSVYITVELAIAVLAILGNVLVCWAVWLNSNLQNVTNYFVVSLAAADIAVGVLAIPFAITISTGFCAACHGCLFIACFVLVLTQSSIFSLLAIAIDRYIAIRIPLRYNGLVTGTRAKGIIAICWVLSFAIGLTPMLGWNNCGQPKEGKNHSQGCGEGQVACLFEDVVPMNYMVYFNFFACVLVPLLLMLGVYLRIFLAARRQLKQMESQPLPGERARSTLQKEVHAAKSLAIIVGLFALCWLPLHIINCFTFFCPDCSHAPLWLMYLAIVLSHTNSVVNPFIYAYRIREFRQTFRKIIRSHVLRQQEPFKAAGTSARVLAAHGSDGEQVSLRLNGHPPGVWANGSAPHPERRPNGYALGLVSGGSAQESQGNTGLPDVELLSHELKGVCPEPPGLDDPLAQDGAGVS
Activity calls are given as the source filed them. The rule behind the calls is not given here.

[
  {
    "COMPOUND": "CCCn1c(=O)c2[nH]c(-c3ccc(OCC(=O)NCCCCC(N)C(=O)NCCCCC(NC(C)=O)C(=O)NC(CCCCNC(C)=O)C(N)=O)cc3)nc2n(CCC)c1=O (centres undefined)",
    "Activity": "58%"
  },
  {
    "COMPOUND": "CCCN(CCc1ccc(NC(=O)CCC(N)C(=O)NCCCCC(NC(=O)CCC(=O)NCCOCCOCCNC(=O)CCC(=O)NCCOCCOCCNC(=O)CCC(=O)NCCOCCOCCNC(=O)CCC(=O)NCCOCCOCCNC(=O)CCC(=O)NCCOCCOCCNC(=O)CCC(=O)NCCOCCOCCNC(=O)CCC(=O)NCCOCCOCCNC(=O)C(CCCCNC(=O)C(N)CCCCNC(=O)COc2ccc(-c3nc4c([nH]3)c(=O)n(CCC)c(=O)n4CCC)cc2)NC(C)=O)C(N)=O)cc1)C1CCc2c(O)cccc2C1 (centres undefined)",
    "Activity": "Active"
  },
  {
    "COMPOUND": "CCCN(CCc1ccc(NC(=O)CCC(N)C(=O)NCCCCC(NC(=O)CCC(=O)NCCOCCOCCNC(=O)CCC(=O)NCCOCCOCCNC(=O)CCC(=O)NCCOCCOCCNC(=O)C(CCCCNC(=O)C(N)CCCCNC(=O)COc2ccc(-c3nc4c([nH]3)c(=O)n(CCC)c(=O)n4CCC)cc2)NC(C)=O)C(N)=O)cc1)C1CCc2c(O)cccc2C1 (centres undefined)",
    "Activity": "Active"
  },
  {
    "COMPOUND": "CCCN(CCc1ccc(NC(=O)CCC(N)C(=O)NCCCCC(NC(=O)C(CCCCNC(=O)C(N)CCCCNC(=O)COc2ccc(-c3nc4c([nH]3)c(=O)n(CCC)c(=O)n4CCC)cc2)NC(C)=O)C(N)=O)cc1)C1CCc2c(O)cccc2C1 (centres undefined)",
    "Activity": "Active"
  }
]
